- studyTarget: CIAP (calf intestinal alkaline phosphatase) (Bos taurus)
Below, each of the molecules is paired with its reported pIC50 value.
Value format note: pIC50 is -log10 of concentration (mol/L); just state the number.

Below, each entry is followed by its recorded pIC50 result.
molecule	numericReadout
COc1cc(C=C2Oc3cc(Cl)cc([N+](=O)[O-])c3C2=O)ccc1OCc1ccccc1	5.26
CCCOc1ccc(C=C2Oc3cc(Cl)cc([N+](=O)[O-])c3C2=O)cc1OC	5.63

What measured pIC50 goes with `O=C1C(=Cc2ccc(Cl)cc2)Oc2cc(Br)cc(Br)c21` ?
5.66

Now try `O=C(C=Cc1cccs1)c1cc(Cl)cc([N+](=O)[O-])c1O` .
5.07

And `O=C(C=Cc1ccco1)c1cc(Br)cc(Br)c1O` ?
5.37

* * *

- studyTarget: CIAP (calf intestinal alkaline phosphatase) (Bos taurus, UniProt P19111)
- Sequence (P19111 20-506 limits assumed): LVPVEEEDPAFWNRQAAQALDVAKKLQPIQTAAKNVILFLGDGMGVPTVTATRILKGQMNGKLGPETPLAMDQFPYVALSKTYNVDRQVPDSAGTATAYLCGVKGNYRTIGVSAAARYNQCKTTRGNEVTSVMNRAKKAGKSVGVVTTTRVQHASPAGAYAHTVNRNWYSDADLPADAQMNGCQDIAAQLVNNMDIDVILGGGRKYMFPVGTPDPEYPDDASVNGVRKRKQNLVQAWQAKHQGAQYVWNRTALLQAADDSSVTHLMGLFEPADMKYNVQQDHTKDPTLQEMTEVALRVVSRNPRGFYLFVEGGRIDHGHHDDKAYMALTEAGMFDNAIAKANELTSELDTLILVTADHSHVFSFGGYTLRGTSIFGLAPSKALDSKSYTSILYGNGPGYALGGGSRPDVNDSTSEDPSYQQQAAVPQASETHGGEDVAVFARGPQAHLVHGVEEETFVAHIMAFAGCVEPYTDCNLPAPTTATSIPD
Below: a set of entries, each annotated with reported IC50.
Express it in µM; write the number only.

molecule	uom	IC50
Cc1ccc(C=CC(=O)c2cc(Cl)cc([N+](=O)[O-])c2O)c(C)c1 [Compound 8]	µM	12.6
CN(C)c1ccc(C=CC(=O)c2cc(Cl)cc([N+](=O)[O-])c2O)cc1 [Compound 6]	µM	3.02
O=C(C=Cc1ccc(Cl)cc1)c1cc(Br)cc(Br)c1O [Compound 2]	µM	6.23
O=C(C=Cc1ccc(F)cc1)c1cc(Cl)cc([N+](=O)[O-])c1O [Compound 5]	µM	7.55

Reported IC50, molecule O=C1C(=Cc2ccco2)Oc2cc(Br)cc(Br)c21 [Compound 14] : ____
4.66

Lookup CN(C)c1ccc(C=C2Oc3cc(Cl)cc([N+](=O)[O-])c3C2=O)cc1 [Compound 15]
2.15

Next molecule up: COc1ccc(C=CC(=O)c2cc(Cl)cc([N+](=O)[O-])c2O)cc1 [Compound 4]
3.14

Entry COc1cc(C=CC(=O)c2cc(Cl)cc([N+](=O)[O-])c2O)ccc1OCc1ccccc1 [Compound 11] please
9.56

Next record, please: COc1ccc(C=C2Oc3cc(Cl)cc([N+](=O)[O-])c3C2=O)cc1 [Compound 20]
1.05

Repeat with O=C1C(=Cc2ccc(F)cc2)Oc2cc(Cl)cc([N+](=O)[O-])c21 [Compound 17]
4.88

Another molecule to check: O=C1C(=Cc2cccs2)Oc2cc(Cl)cc([N+](=O)[O-])c21 [Compound 19]
5.88

Can you handle CCCOc1ccc(C=CC(=O)c2cc(Cl)cc([N+](=O)[O-])c2O)cc1OC [Compound 10] next?
6.97

// query: O=C1C(=Cc2ccc(Cl)cc2)Oc2cc(Cl)cc([N+](=O)[O-])c21 [Compound 16]
2.13

Proceed to Cc1ccc(C=C2Oc3cc(Cl)cc([N+](=O)[O-])c3C2=O)c(C)c1 [Compound 18]
1.15

One more molecule: O=C1C(=Cc2ccc(C(F)(F)F)cc2)Oc2cc(Br)cc(Br)c21 [Compound 13]
5.79
